biological target: adenosine A1 receptor (Bos taurus); construct: were homogenized with a Brinkman polytron and the membranes were collected by centrifugation; from tissue; host or cells: bovine caudate membranes; assay: Receptor affinity (radioligand binding), A1, [3H]CHA; parameters: species or system bovine; conditions: radioligand binding, A2 Ki /A1 Ki
Sequence (P28190 whole entry): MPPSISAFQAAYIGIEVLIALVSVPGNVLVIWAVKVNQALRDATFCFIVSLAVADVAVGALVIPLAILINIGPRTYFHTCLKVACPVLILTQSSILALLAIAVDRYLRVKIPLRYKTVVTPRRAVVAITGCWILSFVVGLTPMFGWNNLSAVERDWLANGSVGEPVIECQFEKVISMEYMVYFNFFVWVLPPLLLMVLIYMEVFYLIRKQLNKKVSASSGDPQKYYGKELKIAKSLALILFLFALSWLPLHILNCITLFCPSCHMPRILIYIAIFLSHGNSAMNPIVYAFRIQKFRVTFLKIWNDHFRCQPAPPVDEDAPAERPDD
reported-property: Selectivity Ratio (A2 Ki /A1 Ki)

Study these solved cases before continuing.
Cn1cnc2c(N[C@H]3C[C@@H]4C[C@H]3[C@H](O)C4)ncnc21 (relative stereo): 152
CC(C)Nc1nc2c(N[C@@H]3C[C@H]4C[C@@H]3C[C@H]4O)ncnc2n1C (relative stereo): 602

(I) CC(C)N(C)c1nc2c(N[C@H]3C[C@H]4CC[C@@H]3C4)ncnc2n1C (relative stereo)
(II) Cn1cnc2c(N[C@@H]3C[C@H]4C[C@@H]3c3ccccc34)ncnc21 (relative stereo)
Qu. Which of the two items, I and II , has the greater recorded Selectivity Ratio (A2 Ki /A1 Ki)? # answer = label of selected item
Ans. I
(I: 166, II: 33)
